Values were extracted from patent US20230348603A1.

Give measured ELISA OD450 for each item. Keep answers brief.
Molecular target: T1, Human VSIG4-L-Fc (human)
T1 construct: also called hVSIG4-L-Fc; hVSIG4-L
T1 sequence (chain, as listed by the source limits assumed): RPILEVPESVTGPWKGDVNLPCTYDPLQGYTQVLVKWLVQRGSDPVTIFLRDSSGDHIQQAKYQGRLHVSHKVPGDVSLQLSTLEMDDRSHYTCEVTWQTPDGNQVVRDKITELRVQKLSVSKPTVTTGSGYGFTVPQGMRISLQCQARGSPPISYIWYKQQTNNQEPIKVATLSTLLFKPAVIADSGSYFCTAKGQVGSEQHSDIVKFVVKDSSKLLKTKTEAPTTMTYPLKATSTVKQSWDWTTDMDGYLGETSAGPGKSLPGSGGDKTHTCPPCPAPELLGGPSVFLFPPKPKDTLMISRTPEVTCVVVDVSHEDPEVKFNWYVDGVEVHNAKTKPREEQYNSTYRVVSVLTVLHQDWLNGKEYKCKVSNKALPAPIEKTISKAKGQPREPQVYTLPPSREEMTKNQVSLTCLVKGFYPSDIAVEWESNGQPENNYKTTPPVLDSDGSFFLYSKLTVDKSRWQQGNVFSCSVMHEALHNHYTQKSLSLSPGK
Assay: ELISA, IgG 50 nM on coated antigen;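 also: Mouse-human chimeric IgG4 antibodies incubated 1 h on plate-coated VSIG4 proteins, bound IgG detected with HRP-labelled anti-human IgG, irrelevant antibody and protein as specificity controls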
Your reply should be a number followed by the unit it is expressed in.

Input 16E03 mouse/human chimeric IgG4 (S228P) kappa (antibody, V domains shown) VH: QVQLQQSGAELARPGASVKMSCKASGYTFTSYTMHWIKQRPGQGLEWIGYINPSSGHTYYNQKFKDKATLTPDKSSSTAYMQLTSLTSEDSAVYYCARRIPTAYAMDYWGQGTSVTVSS VL: EIQMTQSHKFMSTSVGDRVSITCKASQDVGTAVAWYQQKPGQSPKLLIYWASTRHTGVPDRFTGSGSGTDFTLTISNVQSEDLADYFCQQYSSYPLTFGAGTKLELKR , output reported ELISA OD450.
4.5 OD450

Input 14D12 mouse/human chimeric IgG4 (S228P) kappa (antibody, V domains shown) VH: QIQLVQSGPELKKPGETVKISCKASGYTFTNYGMNWVKQTPGKGLKWMGLINTYTGEPTYADDFKGRFAFSLETSASTAYLQINNLKNEDMATYFCARERIYGYLHYFDYWGQGTTLTVSS VL: DVVMTQTPASLAVSLGQRATISCKASQSVDYDGDSYMNWYQQKPGQPPKLLIYAASNLESGIPARFSGSGSGTDFTLNIHPVEEEDAATYYCQQSNEDPRTFGGGTKLEIKR , output reported ELISA OD450.
4.53 OD450

Input 13H11 mouse/human chimeric IgG4 (S228P) kappa (antibody, V domains shown) VH: QIQLVQSGPELKKPGETVKISCKASGYTFENFGMNWVKQAPGKGLKWMGWINTYTGEATYADDFKGRFAFSLETSASTAYLQINNLKNEDTATYFCARDGGFRHFDVWGAGTTVTVSS VL: ETTVTQSPASLSVATGEKVTIRCITSTDIDDDMNWYQQKPGEPPKLLISEGNTLRPGVPSRFSSSGYGTDFVFTIENMLSEDVADYYCLQSDNLPLTFGAGTKLELKR , output reported ELISA OD450.
4.27 OD450

Input 12A08 mouse/human chimeric IgG4 (S228P) kappa (antibody, V domains shown) VH: EVMLVESGGGLVKPGGSLKLSCAASGFTFDDFYMYWVRQTPEKRLEWVASISDGGTYTYYPDSVKGRFTISRDNAKNTLYLQLSSLKSEDTAMYYCARGVDKYYYAMDYWGQGTSVTVSS VL: QILLTQSPAIMSASPGEKVTITCSASSSVSYMHWFQQKPGTSPKLWIYSTSNLASGVPARFSGSGSGTSYSLTISRMEAEDAATYYCQQRSSYPLTFGAGTKLELKR , output reported ELISA OD450.
4.44 OD450

Input 12A12 mouse/human chimeric IgG4 (S228P) kappa (antibody, V domains shown) VH: QVQMKQSGAELAKPGASVKMSCKASGYTFTNYWMHWVKQRPGQGLEWIGYINPSTGYTDYNQNFKDRATLTADKSSSTAYMQLSSLTSEDSAVYYCIRGSDYYGRDYWGQGTTLTVSS VL: DIQMTQTTSSLSASLGDRVTISCRASQDISNYLNWYQQKPDGTLKLLIYYTSRLHSGVPSRFSGSGSGTDYSLTISNLEQEDIATYFCRQGNTLPWTFGGGTKLEIKR , output reported ELISA OD450.
4.45 OD450
